Tested on: RARa homodimer (NR concentration 270 nM)
TEST_SUMMARY: PBM binding z-score (relative to random genomic background probes); higher = stronger binding; sequences stand for … in GC…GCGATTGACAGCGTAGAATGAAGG
READOUT_NAME: PBM binding z-score
// print number alone

Recorded PBM binding z-score, per entry:
CGAACTAGGTCACCAGGACAGTGACGAGGTTGGA ... 0.339
ACTAGTTGGTCAGCTGAGGTAACACACAATTCGG ... -0.362
CTATGTAGGTTAAGGGGGTCATTAAGTTTGAAAG ... 1.68
GCTTACGGGTCAAAGGTTACAGCATGAATAGAAT ... 1.16
ATATGTAGGTTAGGGTGATTCAGAAAGTAGGGAA ... 1.25

Turning now to a further sequence:
get_value(item= "CCTACTGGGCCAAAGGTCAGTGATTCCAATGCTC" , readout=PBM binding z-score) returns 1.82

###

Test system: LXRa homodimer (NR concentration 270 nM)
TEST_SUMMARY: PBM binding z-score (relative to random genomic background probes); higher = stronger binding; sequences stand for … in GC…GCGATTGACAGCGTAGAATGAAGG
Reported PBM binding z-score values are given for each entry in this list.
// print number alone

Recorded PBM binding z-score, per entry:
CCTAGCAGGCCACGGTCACTCAAGCATTTCGCTT ... -0.0188
CAAACTAGGTCAAAGGTCAAAGTAGAGCCAACCA ... 5.51
AGTCAGAGTTCATCTAGGTAACGTAAGATATGCT ... 4.78
ATACCAAGGTGATCGTGAGTTCGTTGATACTAAC ... 0.426

Turning now to a further sequence:
Lab note: sequence "TGAATGAGGTGAAAGATCAGGGAACGTGGCGTCG" tested on LXRa homodimer (NR concentration 270 nM); recorded PBM binding z-score was -0.421

###

System: PPARg:RXRa 30nM:10nM, anti-RXR (NR concentration 30 nM, RXRa partner concentration 10 nM)
TEST_SUMMARY: PBM binding z-score (relative to random genomic background probes); higher = stronger binding; sequences stand for … in GC…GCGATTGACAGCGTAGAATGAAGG
Decide by PBM binding z-score: equal to or exceeding 3 means 1, less means 0.

Take a look at these entries with their results.
GATACAGGGTCAAGGCCAGAATACGCGTATTGAT ... 0
CAAACTAGGTCACGAGGTCAAAGTCCGCTTCCCG ... 1
CATAGTTGGTCAAGGTCACACACGCTATAGGTAC ... 0
ACTAGCAGGCCAAGAGTCACTCAAGATTAGTCCG ... 0
ATATCTAGGTTAGGGTCATTCAGAAAGTAGGGAA ... 1

Q: Is it the case that "ATCGAAAGGTCGTGAGGTGTGTATACAGAAAGGC" has PBM binding z-score reaching or exceeding 3?
Result: 0

###

System: RARg:RXRa (NR concentration 270 nM, RXRa partner concentration 90 nM)
TEST_SUMMARY: PBM binding z-score (relative to random genomic background probes); higher = stronger binding; sequences stand for … in GC…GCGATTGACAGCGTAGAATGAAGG
Decide by PBM binding z-score: equal to or exceeding 4 means satisfied, less means not satisfied.

Take a look at these entries with their results.
ATTTGTAGGTTATCGGGTCATTCAGTTTGCGCAT ... not satisfied
CCTGCTAGGACAATGGTCAGCTAAAGCAGCTCGC ... not satisfied
CGTCCAAGGTCAAGGGCAGTGAAAGAGACTCGAA ... satisfied
CGAACTAGGTCATAGGACAGTGAAAGGCGACGTA ... not satisfied

Q: Is it the case that "CCGAGTAGGTTACCAGGGGGCATTCAGTGCGAAT" has PBM binding z-score reaching or exceeding 4?
Result: not satisfied
